# TARGET_ENTITY: Protein kinase C beta type (Homo sapiens);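 also: PKC-beta1 splice variant of the enzyme, figure reported as mean inhibition, measured within the GSK PKIS kinase profiling panel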
# CONDITION_DESCRIPTION: at 0.1 µM
# Description: GSK_PKIS: PKC-beta1 (splice variant) mean inhibition at 0.1 uM [Nanosyn]

SMILES_STRING | inhibition / %
CCn1c(-c2nonc2N)nc2c(C#CC(C)(C)O)nc(OC[C@H](N)c3ccccc3)cc21 | 32.7
COC(=O)c1sc(-n2cnc3cc(OC)c(OC)cc32)cc1OCc1ccccc1C(F)(F)F | -0.94
c1ccc(-c2nc3n(c2-c2ccc4c(c2)OCO4)CCC3)nc1 | 3.53
CC(=O)Nc1cccc(C#Cc2cncnc2Nc2ccc(OCc3cccc(F)c3)c(Cl)c2)c1 | 0.65
CCNC(=O)O[C@H]1CN[C@H](C#Cc2cc3ncnc(Nc4ccc(OCc5cccc(F)c5)c(Cl)c4)c3s2)C1 | 0.61
Nc1ncc(-c2cccc(S(N)(=O)=O)c2)c2scc(-c3ccc(F)c(Cl)c3)c12 | -0.08
Nc1nc(-c2cccc(Cl)c2)c(-c2ccc3ncccc3n2)s1 | 2.33
COc1ccc2c(-c3ccnc(Nc4cccc(OC(F)(F)F)c4)n3)cnn2n1 | 0.08
CS(=O)(=O)CCNCc1coc(-c2ccc3ncnc(Nc4ccc(OCc5ccccc5)cc4)c3c2)c1 | 0.47

---

# TARGET_ENTITY: RAC-gamma serine/threonine-protein kinase (Homo sapiens) (UniProt Q9Y243)
# Sequence (Q9Y243 whole entry): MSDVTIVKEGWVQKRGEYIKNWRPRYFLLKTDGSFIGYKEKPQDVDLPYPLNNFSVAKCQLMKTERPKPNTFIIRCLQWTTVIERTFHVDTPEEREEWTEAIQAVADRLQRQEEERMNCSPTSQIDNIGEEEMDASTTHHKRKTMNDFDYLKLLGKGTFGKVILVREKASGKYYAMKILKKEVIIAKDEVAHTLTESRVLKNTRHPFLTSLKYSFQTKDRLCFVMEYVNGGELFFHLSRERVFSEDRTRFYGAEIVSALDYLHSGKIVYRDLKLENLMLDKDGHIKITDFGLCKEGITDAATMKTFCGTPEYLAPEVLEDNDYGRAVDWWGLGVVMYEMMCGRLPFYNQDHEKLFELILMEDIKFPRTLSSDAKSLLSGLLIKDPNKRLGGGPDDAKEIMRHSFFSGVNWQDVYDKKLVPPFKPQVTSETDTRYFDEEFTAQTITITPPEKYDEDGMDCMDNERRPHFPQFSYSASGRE
# CONDITION_DESCRIPTION: at 0.1 µM
# Description: GSK_PKIS: AKT3 mean inhibition at 0.1 uM [Nanosyn]

SMILES_STRING | TARGET_ENTITY | inhibition, %
CNC(=O)c1cc(-c2ccc(F)cc2)cc(-c2ccc(S(=O)(=O)N3CCCC3)cc2)c1N | RAC-gamma serine/threonine-protein kinase (Homo sapiens) (UniProt Q9Y243) | 0.7
CCn1c(-c2nonc2N)nc2cnc(Oc3cccc(NC(=O)c4ccc(N(C)C)cc4)c3)cc21 | RAC-gamma serine/threonine-protein kinase (Homo sapiens) (UniProt Q9Y243) | 1.82
COc1cc2ncn(-c3cc(OCc4ccccc4C(F)(F)F)c(C(=O)N(C)C)s3)c2cc1OC | RAC-gamma serine/threonine-protein kinase (Homo sapiens) (UniProt Q9Y243) | 0.89
N#Cc1c(NC(=O)c2ccc(F)cc2)sc2c1CCCC2 | RAC-gamma serine/threonine-protein kinase (Homo sapiens) (UniProt Q9Y243) | 2.13
COc1ccc(-c2cc(-c3c[nH]nc3-c3ccccn3)ccn2)cc1 | RAC-gamma serine/threonine-protein kinase (Homo sapiens) (UniProt Q9Y243) | 1.66

---

# TARGET_ENTITY: Serine/threonine-protein kinase D1 (Homo sapiens);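 also: each value is an averaged percent inhibition of PRKD1 kinase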
# CONDITION_DESCRIPTION: at 1 µM

SMILES_STRING | TARGET_ENTITY | UNIT_OF_MEASUREMENT | inhibition
COC(=O)Nc1nc2ccc(S(=O)(=O)c3ccc(NC(=O)Nc4cc(C(F)(F)F)ccc4F)cc3)cc2[nH]1 | Serine/threonine-protein kinase D1 (Homo sapiens) | % | 5.18
COc1cccc(-c2c[nH]c3c(N/N=C/c4ccncc4)ncnc23)c1 | Serine/threonine-protein kinase D1 (Homo sapiens) | % | 6.07
O=S(=O)(CCNCc1ccc(-c2ccc3ncnc(Nc4ccc(OCc5cccc(F)c5)c(Cl)c4)c3c2)o1)c1ccccc1 | Serine/threonine-protein kinase D1 (Homo sapiens) | % | 7.32
COc1ccc2c(-c3ccnc(Nc4cccc(OC(F)(F)F)c4)n3)cnn2n1 | Serine/threonine-protein kinase D1 (Homo sapiens) | % | 6.19
COC(=O)Nc1nc2ccc(Oc3ccc(NC(=O)Nc4cccc(Cl)c4)cc3)cc2[nH]1 | Serine/threonine-protein kinase D1 (Homo sapiens) | % | 3.03
COC(=O)c1sc(-n2cnc3cc(OC)c(OC)cc32)cc1OCc1ccccc1C(F)(F)F | Serine/threonine-protein kinase D1 (Homo sapiens) | % | 5.12
COc1ccc(-c2cc3c(N)ncnc3o2)cc1 | Serine/threonine-protein kinase D1 (Homo sapiens) | % | -1.28
CN1CCC(n2cnc(-c3ccc(F)cc3)c2-c2ccnc(Nc3ccccc3)n2)CC1 | Serine/threonine-protein kinase D1 (Homo sapiens) | % | 39.6
c1cc(-c2cnn3nc(N4CCOCC4)ccc23)nc(NC2CC2)n1 | Serine/threonine-protein kinase D1 (Homo sapiens) | % | 39.6
CCOc1ccc2c(-c3ccnc(Nc4cccc(C(F)(F)F)c4)n3)cnn2n1 | Serine/threonine-protein kinase D1 (Homo sapiens) | % | 3.21
